Below, each entry is listed with its recorded IC50.
System: chloroquine-resistant (multidrug-resistant) PfDd2 (MRA-150) P. falciparum strain
assayOverview: SYBR green I-based fluorescence P. falciparum growth inhibition assay, PfDd2
Type: cell-based, Plasmodium falciparum
runConditions: Plasmodium falciparum; SYBr Green based assay, 72 h, multidrug-resistant strain; read-out: IC50 ± SD PfDd2

INSERT INTO measurements (molecule, valueobserved) VALUES
  ('CCOC(=O)c1cc(O)c(O)c(O)c1 [compound 10, Ethyl gallate]', '2.86 µg/mL'),
  ('CC(=O)O[C@H]1CC[C@]2(C)[C@H]3CC=C4[C@@H]5CC(C)(C)CC[C@]5(C)CC[C@@]4(C)[C@]3(C)CC[C@H]2C1(C)C [compound 11, β-amyrin acetate]', '> 25 µg/mL'),
  ('COc1c(O)cc2c(=O)oc3c(OC)c(O)cc4c(=O)oc1c2c34', '1.36 µg/mL');

Could you now look at the following molecule, please?
Q. Find the recorded IC50 belonging to COc1c(O)cc2c(=O)oc3c(OC)c(OC4OCC(O)C(OC(=O)c5cc(O)c(O)c(O)c5)C4O)cc4c(=O)oc1c2c34 (stereo not shown) and report it.
A. 1.76 µg/mL
